- PROTOCOL SUMMARY: A CellTox Green Cytotoxicity Assay to monitor cytotoxicity in HepG2 cells - 24 hour (AID 1224878); also: nearly all actives have a fitted effect of over 45% in size
- ASSAY CONTEXT: CellTox Green fluorescence; series mostly up to 76.8 µM
Inconclusive results are not listed. Calls of active or inactive are those of the source. Calls follow the shape of the dose curve; as a rule, active = well fitted activation curve with a large enough effect in the repeat runs; inconclusive = weak or mixed curves; inactive = flat fitted curve, though single readings scatter.
Parameter call: string, one of TRUE (active), FALSE (inactive)

Answered examples (4):
CCCCC/C=C\C/C=C\CCCCCCCC(=O)O
FALSE
CC(=O)c1ccc(C(C)=O)cc1
FALSE
CCc1oc2ccccc2c1C(=O)c1cc(I)c(O)c(I)c1
FALSE
O=C1OC2(c3ccc(O)cc3Oc3cc(O)ccc32)c2ccc(N=C=S)cc21
TRUE

Answer briefly: the call reported for FC(F)(F)c1cccc(Cl)c1 in this assay. FALSE

Answer briefly: the call reported for CCC(C)(CCC(C)C)C(=O)[O][Sn]([CH3])([CH3])[O]C(=O)C(C)(CC)CCC(C)C (centres undefined) in this assay. FALSE

Answer briefly: the call reported for CCOC(=O)c1ccc(C2CCC(NC[C@H](O)COc3ccc(O)c(NS(C)(=O)=O)c3)CC2)cc1 (some centres undefined) in this assay. TRUE

Answer briefly: the call reported for COc1cccc2c1C(=O)c1c(O)c3c(c(O)c1C2=O)C[C@@](O)(C(C)=O)C[C@@H]3O[C@H]1C[C@H](N)[C@H](O)[C@H](C)O1 in this assay. FALSE

Answer briefly: the call reported for Cc1cc(C)c(/C=C2\C(=O)Nc3ccccc32)[nH]1 in this assay. TRUE

Answer briefly: the call reported for COC(=O)c1ccccc1C in this assay. FALSE

Answer briefly: the call reported for CCC(=O)C(=O)CC in this assay. FALSE

Answer briefly: the call reported for NC(=O)c1cccc([N+](=O)[O-])c1 in this assay. FALSE

Answer briefly: the call reported for Nc1nc2c(ncn2COCCO)c(=O)[nH]1 in this assay. FALSE

Answer briefly: the call reported for CCCC[P+](C)(CCCC)CCCC in this assay. FALSE

Answer briefly: the call reported for Cl[Si](Cl)(c1ccccc1)c1ccccc1 in this assay. FALSE

Answer briefly: the call reported for CC(CO)Oc1ccccc1 (centres undefined) in this assay. FALSE

Answer briefly: the call reported for COc1cc(/C=C/c2ccccc2)oc(=O)c1 in this assay. FALSE

Answer briefly: the call reported for [Cl][Pt-2]([Cl])([Cl])[Cl] in this assay. FALSE

Answer briefly: the call reported for Cc1c(C)c2c(c(C)c1OC(=O)c1cccnc1)CC[C@@](C)(CCC[C@H](C)CCC[C@H](C)CCCC(C)C)O2 in this assay. FALSE

Answer briefly: the call reported for CCCCC(CC)COC(=O)CCCCC(=O)OCc1ccccc1 (centres undefined) in this assay. FALSE
